- System: HOP-62 NSCLC
- test protocol: NCI tumour cell line growth inhibition, 48 h
Listed molecules paired with reported TGI

molecule | target of assay | TGI
CC(C)(C)OC(=O)/C=C/C(=O)O/C=C/[N+](=O)[O-] | HOP-62 NSCLC | > 100 µM
O=S(=O)(NC(c1ccccc1)(c1cc2ccccc2[nH]1)c1cc2ccccc2n1S(=O)(=O)c1ccccc1)c1ccccc1 (stereo not given) | HOP-62 NSCLC | > 100 µM
CCCN(CCC)C(=O)Cc1c2n(c3ccccc13)Cc1ccccc1-2 | HOP-62 NSCLC | > 100 µM
CNC1NC(=O)c2ccccc2N1Cc1ccc(F)cc1 (stereo not given) | HOP-62 NSCLC | > 100 µM
O=C1NC(N/N=C/C(O)C(O)C(O)C(O)CO)=N/C1=C\c1cccs1 (stereo not given) | HOP-62 NSCLC | > 100 µM

* * *

- System: KM12 colon
- test protocol: NCI tumour cell line growth inhibition, 48 h
measure name: TGI

molecule | experimental value
C=CCC1(O)c2cccc(O)c2C(=O)c2cccc(O)c21 (stereo unspecified) | 85 µM
CCN(CC)C(=S)N/N=C(\C)c1ccccc1O | > 100 µM
O=C(Nc1cc(Cl)ccc1O)c1cccc(NC2=C(Cl)C(=O)N(Cc3ccccc3)C2=O)c1 | 52 µM
CCc1ccc(CCC(=O)Nc2ncc(Cc3ccccc3)s2)o1 | > 100 µM
CCOP(=O)(OCC)C(Cc1ccccc1)N=C(c1ccccc1)c1ccccc1 (stereo unspecified) | 32.2 µM
COC[C@H]1OC(=O)c2coc3c2[C@@]1(C)C1=C(C3=O)[C@@H]2CCC(=O)[C@@]2(C)C[C@H]1OC(C)=O | > 100 µM
Cc1ccc(NNc2cc(=O)[nH]c(=O)[nH]2)cc1Cl | > 100 µM
CC1C=C(NCC2(CO)CCC2)NC(N)=N1 (stereo unspecified) | > 100 µM
FC(F)(F)C1(C(F)(F)F)OC(Cl)(Cl)C(Cl)(Cl)O1 | > 10 µM
CC(=O)Oc1cccc2c1C(=O)C(Br)(Br)CCC2 | 23.2 µM
COc1ccc(C=NC23CC4CC(CC(C4)C2)C3)cc1 | > 100 µM

* * *

Collected TGI values appear next to each entry.
- System: MDA-MB-435
- test protocol: NCI tumour cell line growth inhibition, 48 h
measure name: TGI (µM)

molecule | measure name | result qualifier | experimental value
COc1ccc(/C=N/n2c(Cc3ccc(Cl)cc3)n[nH]c2=O)cc1 | TGI | > | 100
N#C[C@](CO)(NC(=O)OCc1ccccc1)C(F)F | TGI | > | 100
Cc1cc(N/N=C/c2nc(-c3ccccc3)oc2C)c2cc(Cl)ccc2n1 | TGI | = | 3.26
Cc1c(Cl)cccc1NC(=O)c1sc2nc3c(cc2c1N)CCCCCC3 | TGI | = | 0.251
CC(=O)O/C(=C(/C#N)C(=O)O)C1C(C(=O)O)C(c2ccccc2[N+](=O)[O-])C=C(c2ccco2)N1c1ccncc1 (stereo not given) | TGI | = | 15.7

* * *

- Tested on: LOX IMVI melanoma
- test protocol: NCI tumour cell line growth inhibition, 48 h
Parameter GI50: see the listing below.

compound | GI50
c1ccc2[nH]c(-c3ccc(OCCCCCOc4ccc(-c5nc6ccccc6[nH]5)cc4)cc3)nc2c1 | 1.22 µM
O=C(c1cc(-c2cc3c(cc2C(=O)N2Cc4ccccc4C[C@H]2CN2CCOCC2)OCO3)n2c1CCCC2)N(c1ccccc1)c1ccc(O)cc1 | 7.09 µM
CN(/N=N/c1nc(OCc2ccccc2)c2[nH]cnc2n1)C(=O)N(C)/N=N/c1nc(OCc2ccccc2)c2[nH]cnc2n1 | 37 µM
N#CSCC1CC(O)(c2ccccc2)C(c2ccccc2)C(c2ccc(F)cc2)O1 (centres undefined) | 1.64 µM

* * *

- System: KM12 colon
- test protocol: NCI tumour cell line growth inhibition, 48 h; in the data active means GI50 below about 0.43 µM; inactive means the rest
Labels: 1.0 = active, 0.0 = inactive

smiles code | assigned label
Cl.Fc1c[c-]c(-c2ccccn2)c(F)c1.[Pt].c1ccc([PH+](CC[PH+](c2ccccc2)c2ccccc2)c2ccccc2)cc1 | 1.0
CC[O-].CC[O-].O=Nc1ccc2cc([O-])ccc2c1.O=Nc1ccc2cc([O-])ccc2c1.[Ti+4] | 0.0
Cc1ccc(C(=O)N/N=C/c2cccc(Oc3ccccc3)c2)cn1 | 0.0

* * *

Quick reference: GI50 of the listed items.
- Tested on: M14 melanoma
- test protocol: NCI tumour cell line growth inhibition, 48 h

smiles code | target of assay | GI50
CCS(=O)(=O)c1ccc(OC)c(Nc2nccc(N(C)c3ccc4c(C)[nH]nc4c3)n2)c1 | M14 melanoma | 8460 nM
O=C(Nc1ccncc1)C(=O)c1cn(S(=O)(=O)c2ccccc2F)c2ccccc12 | M14 melanoma | 979 nM
Cc1ccc(NS(=O)(=O)c2cc(C)ccc2C)cc1 | M14 melanoma | 2430 nM

* * *

- System: HCT-116 colon
- test protocol: NCI tumour cell line growth inhibition, 48 h
measure name: log10(TGI) (log10 of the value in µM)

smiles code | target of assay | measure name | experimental value
COC(=O)c1ccc(NCC2=CC(=O)c3ccccc3C2=O)cc1 | HCT-116 colon | log10(TGI) | 1.55
COc1ccc(/C=C2\CNC/C(=C\c3ccc(OC)cc3)C2=O)cc1 | HCT-116 colon | log10(TGI) | 1.11
CC(=O)Oc1cccc2c1C(=O)C(Br)(Br)CCC2 | HCT-116 colon | log10(TGI) | 0.98
CCOC(=O)C#Cc1ccc(C#CC(=O)OCC)cc1 | HCT-116 colon | log10(TGI) | 1.05
COc1cccc(/C=C/C(=O)c2cc3c(N)c(C(=O)Nc4cccc(Cl)c4C)sc3nc2C)c1 | HCT-116 colon | log10(TGI) | 0.15
Cc1cc(S(=O)(=O)NC#N)c(S/C(=N\Nc2ccc([N+](=O)[O-])cc2)c2ccccc2)cc1Cl | HCT-116 colon | log10(TGI) | 1.49

* * *

- Test system: XF 498 CNS
- test protocol: NCI tumour cell line growth inhibition, 48 h

compound | target of assay | TGI
Cc1cc2c(c(C#N)c1C)NC(=O)C(CC(=O)O)C2=O (configuration not stated) | XF 498 CNS | > 100 µM
O=C(c1ccc(NCN2C(=O)CCC2=O)cc1)c1ccc(NCN2C(=O)CCC2=O)cc1 | XF 498 CNS | > 100 µM
COc1ccc2nc(NC(=O)C(=O)CC(=O)c3ccc(Cl)cc3)sc2c1 | XF 498 CNS | > 100 µM
CC(=O)Oc1cccc2c1C(=O)C(Br)(Br)CCC2 | XF 498 CNS | 24.1 µM
Cc1ccc(C2=Nc3ccccc3NC(=O)C2)cc1 | XF 498 CNS | 93.4 µM
CC(=S)NNC(=O)c1ccncc1 | XF 498 CNS | > 100 µM
COC1=C(C(=O)OC(C)(C)C)[C@]2(C)C(C(=O)OC(C)(C)C)C(OC)=C(C(=O)OC(C)(C)C)[C@]2(C)C1C(=O)OC(C)(C)C (some centres not stated) | XF 498 CNS | > 100 µM

* * *

- Test system: OVCAR-3 ovarian
- test protocol: NCI tumour cell line growth inhibition, 48 h
measure name: TGI

molecule | experimental value
CCCC(=O)N[C@@H](Cc1cc(I)c(O)c(I)c1)C(=O)NCCCNCCCCNCCCNC(=O)[C@@H](N)CCCN=C(N)N | > 100 µM
NC(=NC1CCCCCC1)c1ccc(N2CCN(c3ccc(C(N)=NC4CCCCCC4)cc3)CC2)cc1 | 28.8 µM
CCOC(=O)c1cc2cc(CSc3ccccc3)ccc2oc1=O | > 100 µM
C[C@@H]1CCN(C(=O)CC#N)C[C@@H]1N(C)c1ncnc2[nH]ccc12 | > 100 µM
CC(C)(C)C(=O)C(c1ccc(-c2cscn2)cc1)c1ccc(-c2cscn2)cc1 | > 84.7 µM
Cc1ccc2c(=O)[nH]sc2c1 | 43.5 µM
O=c1[nH]nc2c3c(cccc13)NC(CN1Cc3ccccc3C1)=N2 | > 100 µM
O=C(O)c1cc2c(cc1S(=O)(=O)O)C1C(C3C2C2(Cl)C(Cl)=C(Cl)C3(Cl)C2(Cl)Cl)C2(Cl)C(Cl)=C(Cl)C1(Cl)C2(Cl)Cl (stereo unspecified) | > 100 µM
CCOC(=O)NC(=O)c1cn(CCCOC(=O)CCCCCCCCC(=O)OCCCn2cc(C(=O)NC(=O)OCC)c(=O)[nH]c2=O)c(=O)[nH]c1=O | 34.8 µM
CC1(C)OC[C@@]2([C@@H]3CC[C@@H](C3)C2(C)C)N1O | > 100 µM
CC1(C)N=C(N)N=C(N)N1c1cccc(CCCCc2ccc(S(=O)(=O)F)cc2Cl)c1 | 34.1 µM
COc1cc(/C=C/C(=O)O)ccc1O | > 100 µM
N#Cc1nc(Cc2ccccc2)oc1N | > 100 µM
COc1ccc(S(=O)Cc2cc(OC)ccc2OC)cc1 (stereo unspecified) | > 100 µM
COc1ccc(/C=C(\C#N)c2cc(OC)c3c(c2)OCO3)cc1 | < 0.0136 µM
CN(C)CCCNC(=O)CNC(=O)c1cc(NC(=O)c2cc(NC(=O)c3cc(NC(=O)CCNC(=O)c4cc(NC(=O)c5cc(NC(=O)c6nccn6C)cn5C)cn4C)cn3C)cn2C)cn1C | > 100 µM
